This collection of values is drawn from the supplement of paper PMC6757056.

Recorded FACS-Seq fitted mean (log10) by entry
B1: library; a variant is named by its letters at N, in order (parent)
chain: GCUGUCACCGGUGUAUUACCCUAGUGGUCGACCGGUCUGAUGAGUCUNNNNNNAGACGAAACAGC

- Variants of: B1
- run description: FACS-Seq fitted mean relative fluorescence mCherry/BFP without ligand (log10 relative fluorescence); ligand: hypoxanthine (xanthine aptamer); higher = higher reporter protein expression
- details: HEK293T, ligand present: no
parameter measured: FACS-Seq fitted mean (log10)

> print(dat)
    mutant.name            parameter.measured  result
 1       GCACAG  FACS-Seq fitted mean (log10)   0.227
 2       AGACGG  FACS-Seq fitted mean (log10)   0.689
 3       GCUCGA  FACS-Seq fitted mean (log10)    0.14
 4       GGCAAA  FACS-Seq fitted mean (log10)  -0.106
 5       CGAAGG  FACS-Seq fitted mean (log10)  0.0138
 6       AUAGUA  FACS-Seq fitted mean (log10)    0.52
 7       GUGUCG  FACS-Seq fitted mean (log10)   0.585
 8       CGAGAA  FACS-Seq fitted mean (log10)   0.492
 9       UGCCUA  FACS-Seq fitted mean (log10)   0.664
10       GACUGG  FACS-Seq fitted mean (log10)   0.157
11       AGAUAA  FACS-Seq fitted mean (log10)   0.265
12       GGUACG  FACS-Seq fitted mean (log10)   0.173
13       CCAUUC  FACS-Seq fitted mean (log10)  -0.142
14       GGAUAG  FACS-Seq fitted mean (log10)   0.188
15       CAUGCU  FACS-Seq fitted mean (log10)   0.614
16       UUACUG  FACS-Seq fitted mean (log10)   0.491
17       UAACUA  FACS-Seq fitted mean (log10)  0.0691
18       UGCGCG  FACS-Seq fitted mean (log10)   0.142
19       CCGCAG  FACS-Seq fitted mean (log10)   0.345
20       GCGGAA  FACS-Seq fitted mean (log10)   0.328
21       UUCGUA  FACS-Seq fitted mean (log10)   0.252
22       CUUGCA  FACS-Seq fitted mean (log10)   0.834
